# system-under-test: TTK kinase (Homo sapiens)
# Construct: purchased Invitrogen PV3792
# Sequence (P33981 whole entry): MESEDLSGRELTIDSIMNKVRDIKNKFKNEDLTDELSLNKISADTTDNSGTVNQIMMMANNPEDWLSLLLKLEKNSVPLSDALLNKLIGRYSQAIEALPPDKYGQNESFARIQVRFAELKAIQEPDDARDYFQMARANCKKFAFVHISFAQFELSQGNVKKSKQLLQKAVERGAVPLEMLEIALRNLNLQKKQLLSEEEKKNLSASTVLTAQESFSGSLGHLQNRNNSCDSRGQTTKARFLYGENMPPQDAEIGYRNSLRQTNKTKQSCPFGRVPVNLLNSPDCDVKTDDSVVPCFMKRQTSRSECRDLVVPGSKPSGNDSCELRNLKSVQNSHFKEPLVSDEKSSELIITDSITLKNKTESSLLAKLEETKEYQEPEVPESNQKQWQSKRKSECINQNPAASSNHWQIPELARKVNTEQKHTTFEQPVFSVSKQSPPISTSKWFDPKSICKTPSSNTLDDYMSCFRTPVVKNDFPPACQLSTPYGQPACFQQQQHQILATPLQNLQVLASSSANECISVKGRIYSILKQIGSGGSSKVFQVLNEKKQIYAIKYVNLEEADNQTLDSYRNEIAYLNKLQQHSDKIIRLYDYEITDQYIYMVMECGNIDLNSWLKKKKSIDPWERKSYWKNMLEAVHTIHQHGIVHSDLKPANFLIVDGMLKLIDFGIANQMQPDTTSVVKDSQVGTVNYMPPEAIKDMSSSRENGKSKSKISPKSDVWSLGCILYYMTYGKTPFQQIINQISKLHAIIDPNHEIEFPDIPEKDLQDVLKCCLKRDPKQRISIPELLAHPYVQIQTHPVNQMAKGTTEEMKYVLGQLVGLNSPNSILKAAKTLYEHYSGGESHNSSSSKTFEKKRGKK
# method-notes: TTK kinase activity assay (ADP-Glo)
# Format: biochemical
# protocol-conditions: initial concentration 1000 nM, 1:3, 10 dilutions; read-out: IC50 (nM), TTK kinase inhibiting activity
measured-quantity: IC50 (nM)

Use the examples below as a reference point.
structure-smiles-string: Cc1cc(C(N)=O)ncc1Nc1ncc2c(n1)n(C1CCOCC1)c(=O)n2C
measured-quantity: IC50
units-of-measure: nM
number: 387
--
structure-smiles-string: Cc1cc(C(N)=O)ccc1Nc1ncc2c(n1)n(C1CCOCC1)c(=O)n2C
measured-quantity: IC50
units-of-measure: nM
number: 275

[A] Cc1cc(C(N)=O)c(F)cc1Nc1ncc2c(n1)n(C1CCOCC1)c(=O)n2C
[B] Cc1cc(C#N)ccc1Nc1ncc2c(n1)n(C1CCOCC1)c(=O)n2C
Between A and B , which one shows the larger IC50 value? Answer by quoting the chosen item's label.
A
(A: 4220 nM, B: 1720 nM)

----------
# method-notes: Pharmacokinetic assay in ICR mice (i.v. and p.o.)
# Assay type: in vivo
# protocol-conditions: mouse, plasma; male ICR mice, po 10 mg/kg vs iv 1 mg/kg
measured-quantity: bioavailability (%)

compound: Cc1sc(C(=O)O)cc1Nc1ncc2c(n1)n(C1CCOCC1)c(=O)n2C [Compound 41]
units-of-measure: %
bioavailability: 42.3

[I] [2H]C([2H])([2H])Oc1cc(C)c(Nc2ncc3c(n2)n(C2CCOCC2)c(=O)n3C)cn1 [Compound 38]
[II] CNC(=O)c1ccc(Nc2ncc3c(n2)n(C2CCOCC2)c(=O)n3C)c(C)c1 [Compound 27]
[III] Cc1cc(C(N)=O)c(F)cc1Nc1ncc2c(n1)n([C@@H]1CCOC1)c(=O)n2C [Compound 76]
// smallest bioavailability at index 0, largest at the end Submit the labels in the order that the ranking request calls for.
I, III, II
(I: 47.7%, III: 104%, II: 213%)

----------
# method-notes: Pharmacokinetic assay in ICR mice (i.v. and p.o.)
# Assay type: in vivo
# protocol-conditions: mouse, plasma; male ICR mice, po, 10 mg/kg
measured-quantity: Cmax (ng/mL)

structure-smiles-string: Cc1sc(C(=O)O)cc1Nc1ncc2c(n1)n(C1CCOCC1)c(=O)n2C
number: 2710
//
structure-smiles-string: CNC(=O)c1cc(C)c(Nc2ncc3c(n2)n(C2CCOCC2)c(=O)n3C)cn1
number: 2060

[A] Cc1cc(C(N)=O)c(F)cc1Nc1ncc2c(n1)n([C@@H]1CCOC1)c(=O)n2C
[B] Cc1cc(C#N)ccc1Nc1ncc2c(n1)n([C@H]1CC[C@H](C#N)CC1)c(=O)n2C
Hey, which is lower on measured Cmax, A or B ? Please indicate the selected item by its label.
A

[A] Cc1cc(C(N)=O)c(F)cc1Nc1ncc2c(n1)n([C@H]1CC[C@](C)(O)CC1)c(=O)n2C
[B] Cc1cc(C#N)ccc1Nc1ncc2c(n1)n(C1CCOCC1)c(=O)n2C
[C] Cc1cc(C(N)=O)c(F)cc1Nc1ncc2c(n1)n([C@H]1CC[C@@](C)(O)CC1)c(=O)n2C
Ascending by Cmax, please. Quick reminder: the answer is the labels in the order asked.
A, B, C
(A: 484 ng/mL, B: 835 ng/mL, C: 4680 ng/mL)

----------
# method-notes: Pharmacokinetic assay in ICR mice (i.v. and p.o.)
# Assay type: in vivo
# protocol-conditions: mouse, plasma; male ICR mice, po 10 mg/kg vs iv 1 mg/kg
measured-quantity: bioavailability (%)

compound: CCNC(=O)c1ccc(Nc2ncc3c(n2)n(C2CCOCC2)c(=O)n3C)c(C)c1
bioavailability, %: 42.1
//
compound: Cc1cc(C#N)ccc1Nc1ncc2c(n1)n([C@H]1CC[C@H](C#N)CC1)c(=O)n2C
bioavailability, %: 33.6
//
compound: Cc1cc(C(N)=O)c(F)cc1Nc1ncc2c(n1)n([C@H]1CC[C@](C)(O)CC1)c(=O)n2C
bioavailability, %: 56
//
compound: Cc1cc(C(N)=O)c(F)cc1Nc1ncc2c(n1)n([C@H]1CC[C@@](C)(O)CC1)c(=O)n2C
bioavailability, %: 166

[P] Cn1c(=O)n(C2CCOCC2)c2nc(Nc3ccc(C(N)=O)cc3Cl)ncc21
[Q] Cc1cc(C(N)=O)c(F)cc1Nc1ncc2c(n1)n([C@H]1CCOC1)c(=O)n2C
Which record shows the lower bioavailability: the first, P , or the second, Q ? Answer = label.
Q

----------
# system-under-test: DNA-PK kinase (Homo sapiens)
# Construct: purchased Promega V4107
# method-notes: Inhibition assay of DNA-PK kinase (Promega kit, ADP-Glo chemiluminescence)
# Type: biochemical
# protocol-conditions: 50 µM ATP, 37° C., 60 min; read-out: IC50 (nM), inhibitory activity on DNA-PK kinase
measured-quantity: IC50 (nM)

structure-smiles-string: Cc1cc(C#N)ccc1Nc1ncc2c(n1)n([C@H]1CC[C@H](C#N)CC1)c(=O)n2C
number: 11.1
--
structure-smiles-string: COC(=O)c1cc(Nc2ncc3c(n2)n(C2CCOCC2)c(=O)n3C)c(C)s1
number: 1.36

[I] [2H]C([2H])([2H])c1cc(C(N)=O)c(F)cc1Nc1ncc2c(n1)n(C1CCOCC1)c(=O)n2C
[II] COc1cc(C)c(Nc2ncc3c(n2)n(C2CCOCC2)c(=O)n3C)cn1
[III] Cc1cc(C(N)=O)c(F)cc1Nc1ncc2c(n1)n(C1CCOCC1)c(=O)n2C1CC1
Parameters: sort_field (IC50), sort_dir (desc). List labels; respect the requested ordering.
III, I, II

----------
# method-notes: Pharmacokinetic assay in ICR mice (i.v. and p.o.)
# Type: in vivo
# protocol-conditions: mouse, plasma; male ICR mice, po 10 mg/kg vs iv 1 mg/kg
measured-quantity: bioavailability (%)

molecule: CCn1c(=O)n(C2CCOCC2)c2nc(Nc3cc(F)c(C(N)=O)cc3C)ncc21
units-of-measure: %
number: 44.8
--
molecule: Cc1cc(C(N)=O)c(F)cc1Nc1ncc2c(n1)n([C@H]1CC[C@@H](C#N)CC1)c(=O)n2C
units-of-measure: %
number: 108
--
molecule: Cc1cc(C(N)=O)ncc1Nc1ncc2c(n1)n(C1CCOCC1)c(=O)n2C
units-of-measure: %
number: 78.4
--
molecule: Cc1cc(C(N)=O)c(F)cc1Nc1ncc2c(n1)n(C1CCOCC1)c(=O)n2C
units-of-measure: %
number: 135
--
molecule: COc1cc(C)c(Nc2ncc3c(n2)n(C2CCOCC2)c(=O)n3C)cn1
units-of-measure: %
number: 51.4
--
molecule: Cc1cc(C#N)ccc1Nc1ncc2c(n1)n([C@H]1CC[C@@H](C#N)CC1)c(=O)n2C
units-of-measure: %
number: 65.2
--
molecule: CNC(=O)c1cc(C)c(Nc2ncc3c(n2)n(C2CCOCC2)c(=O)n3C)cn1
units-of-measure: %
number: 63.9
--
molecule: Cc1cc(C#N)ccc1Nc1ncc2c(n1)n(C1CCOCC1)c(=O)n2C
units-of-measure: %
number: 99.4

[A] Cc1cc(C(N)=O)c(F)cc1Nc1ncc2c(n1)n([C@H]1CC[C@H](C#N)CC1)c(=O)n2C
[B] [2H]C([2H])([2H])n1c(=O)n(C2CCOCC2)c2nc(Nc3ccc(C#N)cc3C)ncc21 (single isomer, unassigned)
[C] Cc1cc(C(N)=O)ccc1Nc1ncc2c(n1)n(C1CCOCC1)c(=O)n2C
[D] Cc1sc(C(N)=O)cc1Nc1ncc2c(n1)n(C1CCOCC1)c(=O)n2C
Returns the items ordered by bioavailability, from maximum to minimum. # list labels per requested ordering
B, A, D, C

Recorded values, source patent US20230165867A1.
